B1: library; numbered along this chain (parent)
chain: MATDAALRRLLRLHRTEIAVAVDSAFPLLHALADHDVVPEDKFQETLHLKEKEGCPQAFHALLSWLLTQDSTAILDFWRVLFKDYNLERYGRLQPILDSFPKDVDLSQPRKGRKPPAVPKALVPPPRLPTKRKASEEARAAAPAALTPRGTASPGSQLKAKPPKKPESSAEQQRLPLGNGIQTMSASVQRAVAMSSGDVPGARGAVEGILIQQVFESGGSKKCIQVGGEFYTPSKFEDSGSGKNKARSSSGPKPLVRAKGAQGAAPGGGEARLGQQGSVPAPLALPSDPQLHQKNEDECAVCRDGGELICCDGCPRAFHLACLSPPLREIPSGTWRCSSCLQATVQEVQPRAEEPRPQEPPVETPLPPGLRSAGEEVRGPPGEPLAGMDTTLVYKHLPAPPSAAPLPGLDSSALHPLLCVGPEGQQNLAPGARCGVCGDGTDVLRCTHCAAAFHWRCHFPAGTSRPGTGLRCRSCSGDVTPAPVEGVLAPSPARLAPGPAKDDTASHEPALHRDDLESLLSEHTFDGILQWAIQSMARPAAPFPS

Variants of: B1
Assay: AIRE transcriptional activation functional score (insulin promoter-GFP; nonsense median 0, synonymous median 1) (normalised score); higher = higher AIRE activity (more reporter activation)
Conditions: with insulin promoter-GFP reporter in HEK293
Bucketed by reported AIRE transcriptional activation functional score, buckets being low-valued = under 0.5, mid-valued = from 0.5 up to 1, high-valued = 1 and over

# mutation_spec, class_label
measured = [
    ("A142T", "mid-valued"),
    ("K120E", "mid-valued"),
    ("Y231G", "low-valued"),
    ("G274D", "high-valued"),
    ("L93K", "low-valued"),
    ("L87H", "low-valued"),
    ("D389P", "mid-valued"),
    ("H60T", "low-valued"),
    ("R456H", "high-valued"),
    ("P416L", "mid-valued"),
    ("G228V", "low-valued"),
    ("T441L", "high-valued"),
    ("V37K", "mid-valued"),
    ("P115F", "high-valued"),
    ("K52M", "high-valued"),
    ("L66I", "mid-valued"),
]
